Molecular target: mouse GSDMD WT-EGFP (Mus musculus, UniProt Q9D8T2)
Construct: GSDMD WT fused to EGFP, transiently expressed in AML12 cells, cell lysate (MST); CETSA in AML12 cells with no transfection stated
Sequence (Q9D8T2 whole entry, the tested form may be a part): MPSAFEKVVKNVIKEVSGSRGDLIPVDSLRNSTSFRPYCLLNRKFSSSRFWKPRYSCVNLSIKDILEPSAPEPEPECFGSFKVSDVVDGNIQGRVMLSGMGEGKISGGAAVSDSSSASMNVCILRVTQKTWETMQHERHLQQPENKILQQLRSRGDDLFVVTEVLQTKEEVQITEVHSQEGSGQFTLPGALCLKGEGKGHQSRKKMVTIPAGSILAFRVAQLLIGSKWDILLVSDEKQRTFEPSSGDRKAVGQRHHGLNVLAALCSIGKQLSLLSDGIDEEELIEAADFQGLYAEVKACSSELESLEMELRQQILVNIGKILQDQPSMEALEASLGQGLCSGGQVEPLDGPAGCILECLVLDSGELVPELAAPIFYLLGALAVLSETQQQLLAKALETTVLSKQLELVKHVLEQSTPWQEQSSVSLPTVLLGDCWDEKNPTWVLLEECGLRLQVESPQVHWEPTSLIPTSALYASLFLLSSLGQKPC
Experiment: microscale thermophoresis in cell lysate
parameter: pKd
One number for each entry, as −log10 of the molar value.

stdin: What is its pKd for mouse GSDMD WT-EGFP (Mus musculus, UniProt Q9D8T2)? Entry: S=C=NCCc1ccccc1
stdout: 6.51

---

Exercise: state measured pKd for each of the molecules provided.
Molecular target: human GSDMD WT-EGFP (Homo sapiens)
Construct: GSDMD WT fused to EGFP, transiently expressed in HEK293T cells, cell lysate (MST) or cells (CETSA)
Sequence (P57764 1-484): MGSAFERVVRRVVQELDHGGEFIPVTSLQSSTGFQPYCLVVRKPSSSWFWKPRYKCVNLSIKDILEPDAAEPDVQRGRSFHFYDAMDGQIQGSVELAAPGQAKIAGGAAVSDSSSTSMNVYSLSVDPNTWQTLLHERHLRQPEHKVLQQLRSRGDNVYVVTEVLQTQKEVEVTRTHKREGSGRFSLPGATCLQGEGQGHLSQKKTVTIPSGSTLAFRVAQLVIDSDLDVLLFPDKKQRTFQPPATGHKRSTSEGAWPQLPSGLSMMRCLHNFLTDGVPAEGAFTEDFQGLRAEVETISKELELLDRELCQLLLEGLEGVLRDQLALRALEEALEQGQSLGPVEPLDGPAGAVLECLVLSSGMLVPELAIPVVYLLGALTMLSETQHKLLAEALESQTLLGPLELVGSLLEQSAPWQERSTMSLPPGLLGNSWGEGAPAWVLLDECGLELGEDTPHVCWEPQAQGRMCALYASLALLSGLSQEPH
Test: microscale thermophoresis in cell lysate
Numbers only, as −log10 of the molar value.

smiles.text	pKd
COc1nccnc1NS(=O)(=O)c1ccc(NC(=O)/C=C/c2ccc([N+](=O)[O-])s2)cc1	4.95

Then this molecule:
stdin: Fill blank: measured pKd of the molecule S=C=NCCc1ccccc1 is ____.
stdout: 6.64
